The measurements presented in this section are drawn from patent US11786485B2.

Assay: 7-day toxicity study in dogs
Conditions: beagle, dog, in vivo, 7-day study, read-out: maximum tolerated dose (MTD)
endpoint: MTD at 7 days (mg/kg/day)
Write down the numeric answer in mg/kg/day and omit the unit.

The molecule identified as COC1=C(OC)C(O)C(C/C=C(\C)CC/C=C(\C)CCC=C(C)C)C(C)C1=O (stereo not shown) registered its MTD at 7 days at 100

----------
Tested on: different cancer cell lines
Assay: Cancer cell death, IC50
Format: cell-based
endpoint: IC50

The compound identified as COC1=C(OC)C(O)C(C/C=C(\C)CC/C=C(\C)CCC=C(C)C)C(C)C1=O (stereo not shown) registered its IC50 at 2.22 to 6.42 µM

----------
Test: Toxicokinetic evaluations in rats and dogs
Type: in vivo
Details: Sprague-Dawley (rat), beagle (dog), rat, dog, in vivo; rats and dogs, 7-day and 28-day studies; read-out: peak time (Tmax)
endpoint: Tmax

The molecule identified as COC1=C(OC)C(O)C(C/C=C(\C)CC/C=C(\C)CCC=C(C)C)C(C)C1=O (stereo not shown) registered its Tmax at 0.25 to 6 h

----------
Test: 7-day toxicity study in rats
Conditions: Sprague-Dawley, rat, in vivo, 7-day study, read-out: maximum tolerated dose (MTD)
endpoint: MTD at 7 days (mg/kg/day)
Write down the numeric answer in mg/kg/day and omit the unit.

The compound identified as COC1=C(OC)C(O)C(C/C=C(\C)CC/C=C(\C)CCC=C(C)C)C(C)C1=O (stereo not shown) registered its MTD at 7 days at 100
